Values were extracted from patent EP4692090A1.

Listing of recorded pIC50 by entry.
- TARGET DESC: ATR kinase (Homo sapiens)
- Construct: purchased Eurofins 14-953
- TEST DESCRIPTION: Inhibitory effect on ATR kinase activity (Caliper mobility shift, FAM-labeled RAD17 peptide substrate)
- Format: biochemical
- CONDITION CONTEXT: read-out: ATR kinase IC50, 1 nM ATR kinase (Eurofins), 28°C for 3 hours, maximum concentration 1 µM, 10 concentrations
pIC50: −log10 of the molar value.

// worked examples, pIC50 included
| MOLECULE | VALUE KIND | EXPERIMENTAL VALUE |
| --- | --- | --- |
| CC1c2cc(N3CCOC[C@H]3C)nc3c2c(nn3-c2cc[nH]n2)CCN1C(=O)C1(C#N)CC1 (single isomer, unassigned) [Compound 40A] | pIC50 | > 8.00 |
| CC1c2cc(N3CCOC[C@H]3C)nc3c2c(nn3-c2cc[nH]n2)CCN1S(=O)(=O)CCO (stereo partly shown) [Compound 34] | pIC50 | > 8.00 |
| CC1c2cc(N3CCOC[C@H]3C)nc3c2c(nn3-c2cc[nH]n2)CCN1S(C)(=O)=NC1CC1 (stereo partly shown) [Compound 153] | pIC50 | 7.00 to 8.00 |

Field: next molecule
query: Entry C[C@@H]1COCCN1c1cc2c3c(nn(-c4cc[nH]n4)c3n1)CCN(C(=O)C1(C(F)(F)F)CC1)C2 [Compound 18] has what pIC50?
result: > 8.00

----------
Attribute: pIC50
- TARGET DESC: ATR kinase (Homo sapiens, UniProt Q13535)
- Construct: purchased Eurofins 14-953
- Sequence (Q13535 whole entry): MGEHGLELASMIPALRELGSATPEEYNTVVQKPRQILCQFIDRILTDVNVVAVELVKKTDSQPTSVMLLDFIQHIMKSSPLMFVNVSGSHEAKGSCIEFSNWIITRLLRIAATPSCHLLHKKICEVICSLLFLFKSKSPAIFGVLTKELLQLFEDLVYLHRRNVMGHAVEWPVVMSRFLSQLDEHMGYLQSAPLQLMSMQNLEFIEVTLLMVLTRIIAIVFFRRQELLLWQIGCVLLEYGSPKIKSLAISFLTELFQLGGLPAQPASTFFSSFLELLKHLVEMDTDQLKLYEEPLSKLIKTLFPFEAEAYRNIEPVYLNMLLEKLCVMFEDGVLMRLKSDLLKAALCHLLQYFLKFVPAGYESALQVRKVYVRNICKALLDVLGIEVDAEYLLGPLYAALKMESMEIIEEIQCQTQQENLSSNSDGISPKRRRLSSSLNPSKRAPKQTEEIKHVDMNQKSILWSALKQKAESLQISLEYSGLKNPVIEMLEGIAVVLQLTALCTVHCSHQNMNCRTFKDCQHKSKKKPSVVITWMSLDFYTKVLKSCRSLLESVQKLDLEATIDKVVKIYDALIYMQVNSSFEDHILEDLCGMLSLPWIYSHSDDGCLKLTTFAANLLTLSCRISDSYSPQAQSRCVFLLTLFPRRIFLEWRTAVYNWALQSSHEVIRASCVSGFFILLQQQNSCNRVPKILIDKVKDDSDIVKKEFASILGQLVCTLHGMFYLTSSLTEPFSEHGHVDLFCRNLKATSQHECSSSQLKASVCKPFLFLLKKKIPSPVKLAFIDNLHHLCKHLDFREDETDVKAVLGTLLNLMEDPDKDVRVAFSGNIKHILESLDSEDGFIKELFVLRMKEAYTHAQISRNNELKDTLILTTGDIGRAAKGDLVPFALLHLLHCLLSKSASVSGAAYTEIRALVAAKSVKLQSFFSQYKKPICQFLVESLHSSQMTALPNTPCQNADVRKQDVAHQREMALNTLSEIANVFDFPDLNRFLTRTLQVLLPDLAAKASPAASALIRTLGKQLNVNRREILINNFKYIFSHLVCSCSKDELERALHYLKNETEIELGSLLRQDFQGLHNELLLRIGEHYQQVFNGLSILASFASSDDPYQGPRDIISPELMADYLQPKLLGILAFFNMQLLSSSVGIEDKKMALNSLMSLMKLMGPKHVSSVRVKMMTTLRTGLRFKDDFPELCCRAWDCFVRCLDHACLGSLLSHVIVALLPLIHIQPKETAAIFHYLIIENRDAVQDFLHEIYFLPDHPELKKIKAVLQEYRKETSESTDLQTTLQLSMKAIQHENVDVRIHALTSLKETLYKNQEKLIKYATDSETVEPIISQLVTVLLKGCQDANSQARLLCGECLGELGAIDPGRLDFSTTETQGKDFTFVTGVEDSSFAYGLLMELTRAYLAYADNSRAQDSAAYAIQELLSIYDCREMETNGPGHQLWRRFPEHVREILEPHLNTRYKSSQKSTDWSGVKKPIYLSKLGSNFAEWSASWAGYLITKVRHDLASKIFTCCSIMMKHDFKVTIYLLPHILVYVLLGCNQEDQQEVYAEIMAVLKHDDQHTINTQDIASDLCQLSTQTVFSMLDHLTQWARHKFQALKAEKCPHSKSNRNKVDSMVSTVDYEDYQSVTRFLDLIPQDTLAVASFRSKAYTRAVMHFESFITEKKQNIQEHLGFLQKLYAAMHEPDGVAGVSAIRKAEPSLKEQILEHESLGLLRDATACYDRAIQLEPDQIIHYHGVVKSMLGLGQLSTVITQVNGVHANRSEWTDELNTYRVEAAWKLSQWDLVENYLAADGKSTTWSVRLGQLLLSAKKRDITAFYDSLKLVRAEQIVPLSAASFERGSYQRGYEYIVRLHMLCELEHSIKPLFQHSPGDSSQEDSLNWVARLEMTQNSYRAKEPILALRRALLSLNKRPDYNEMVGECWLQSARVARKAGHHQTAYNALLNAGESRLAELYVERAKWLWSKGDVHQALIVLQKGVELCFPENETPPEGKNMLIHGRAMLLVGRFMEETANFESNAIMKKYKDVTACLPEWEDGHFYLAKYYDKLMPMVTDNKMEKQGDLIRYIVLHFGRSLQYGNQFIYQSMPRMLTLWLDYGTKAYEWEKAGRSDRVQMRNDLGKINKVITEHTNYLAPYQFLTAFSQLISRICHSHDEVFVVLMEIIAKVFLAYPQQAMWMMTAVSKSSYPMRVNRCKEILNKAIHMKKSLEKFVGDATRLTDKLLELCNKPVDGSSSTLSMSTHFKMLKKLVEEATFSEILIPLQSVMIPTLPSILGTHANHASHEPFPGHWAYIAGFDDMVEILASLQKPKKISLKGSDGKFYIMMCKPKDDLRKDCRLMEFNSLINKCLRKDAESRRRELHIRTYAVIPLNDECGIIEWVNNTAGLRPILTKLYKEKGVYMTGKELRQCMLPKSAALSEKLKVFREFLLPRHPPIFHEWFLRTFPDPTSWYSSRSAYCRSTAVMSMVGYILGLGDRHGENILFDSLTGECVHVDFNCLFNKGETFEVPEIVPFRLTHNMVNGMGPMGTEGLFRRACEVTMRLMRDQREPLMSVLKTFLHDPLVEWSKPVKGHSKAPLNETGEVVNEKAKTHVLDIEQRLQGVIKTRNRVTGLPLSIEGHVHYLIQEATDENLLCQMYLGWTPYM
- Sequence (Q8WXE1 whole entry partner): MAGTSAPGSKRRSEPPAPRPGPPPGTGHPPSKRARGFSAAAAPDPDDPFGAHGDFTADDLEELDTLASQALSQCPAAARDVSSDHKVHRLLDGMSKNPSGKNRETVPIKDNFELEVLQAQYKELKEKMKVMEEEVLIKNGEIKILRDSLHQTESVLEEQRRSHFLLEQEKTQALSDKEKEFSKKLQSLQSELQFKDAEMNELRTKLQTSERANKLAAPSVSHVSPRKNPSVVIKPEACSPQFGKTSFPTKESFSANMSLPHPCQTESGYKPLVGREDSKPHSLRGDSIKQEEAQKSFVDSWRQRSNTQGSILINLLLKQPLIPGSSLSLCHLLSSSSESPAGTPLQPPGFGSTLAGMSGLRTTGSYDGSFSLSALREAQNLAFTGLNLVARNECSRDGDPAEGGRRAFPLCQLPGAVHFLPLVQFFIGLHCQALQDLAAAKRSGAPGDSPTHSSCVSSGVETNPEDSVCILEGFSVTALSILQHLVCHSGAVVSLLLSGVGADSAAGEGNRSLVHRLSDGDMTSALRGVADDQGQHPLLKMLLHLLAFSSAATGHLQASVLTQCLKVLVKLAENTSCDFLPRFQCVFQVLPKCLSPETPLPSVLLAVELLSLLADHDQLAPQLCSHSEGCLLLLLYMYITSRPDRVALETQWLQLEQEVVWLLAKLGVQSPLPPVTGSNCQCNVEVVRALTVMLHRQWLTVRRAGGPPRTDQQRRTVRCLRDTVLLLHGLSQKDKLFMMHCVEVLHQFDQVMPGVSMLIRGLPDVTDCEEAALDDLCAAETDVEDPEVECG
- TEST DESCRIPTION: Inhibitory effect on ATR kinase activity (Caliper mobility shift, FAM-labeled RAD17 peptide substrate)
- Type: biochemical
- CONDITION CONTEXT: read-out: ATR kinase IC50, 1 nM ATR kinase (Eurofins), 28°C for 3 hours, maximum concentration 1 µM, 10 concentrations
pIC50: −log10 of the molar value.

Examples from the recorded data:
| STRUCTURE SMILES | pIC50 |
| --- | --- |
| C[C@@H]1COCCN1c1cc2c3c(n1)c(-c1cc[nH]n1)nn3CCC(=O)N2C1(CO)CC1 | > 8.00 |
| C[C@@H]1COCCN1c1cc2c3c(nn(-c4cc[nH]n4)c3n1)CCN(C)C2=O | 7.00 to 8.00 |
| C[C@@H]1COCCN1c1cc2c3c(n1)c(-c1cc[nH]n1)nn3CCC(=O)N2CC#CC(C)(C)O | 7.00 to 8.00 |

query: Form field: reported pIC50 of C[C@@H]1COCCN1c1cc2c3c(n1)c(-c1cc[nH]n1)nn3CCC(=O)N2C1(C)CC1
result: > 8.00

----------
- TARGET DESC: ATR kinase (Homo sapiens)
- Construct: purchased Eurofins 14-953
- TEST DESCRIPTION: Inhibitory effect on ATR kinase activity (Caliper mobility shift, FAM-labeled RAD17 peptide substrate)
- Format: biochemical
- CONDITION CONTEXT: 1 nM ATR kinase (Eurofins), 28°C for 3 hours, maximum concentration 1 µM, 10 concentrations, read-out: ATR kinase IC50
pIC50: −log10 of the molar value.
Listed below: pIC50 values for each entry.

query: What reported pIC50 corresponds to C[C@@H]1COCCN1c1cc2c3c(nn(-c4cc[nH]n4)c3n1)CCN(C1CCOCC1)C2 on ATR kinase (Homo sapiens)?
result: 7.00 to 8.00

query: What value of pIC50 on ATR kinase (Homo sapiens) does C[C@@H]1COCCN1c1cc2c3c(nn(-c4cc[nH]n4)c3n1)CCN(CC(F)(F)F)C2 have?
result: 7.00 to 8.00
